experiment: logP by HPLC on reversed-phase columns (C 18), EEC directive 79/831 Annex V.A8; format: physicochemical; conditions: acidic range, pH 2.3, 0.1% aqueous phosphoric acid and acetonitrile
What log P (*) was measured for each of the following?
A bare number is all that is needed in reply.

Reported log P (*) of CC(=O)N1CCCCC1=Nc1nc(-c2ccc(Cl)cc2)c(C)s1 [compound 42] : 3.92

The measured log P (*) associated with CC(=O)N1CCCCC1=Nc1nc(-c2cccc(Cl)c2Cl)cs1 [compound 36] reads 4.03

The compound identified as CC(=O)N1CCCCC1=Nc1nc(-c2cc(F)cc(F)c2)cs1 [compound 40] registered its log P (*) at 3.63

Recorded result, Brc1ccccc1Oc1ccccc1-c1csc(N=C2CCCCN2)n1 [compound 86] , log P (*): 2.06

Entry Cc1cccc(-c2cccc(-c3csc(N=C4CCCCN4)n3)c2)c1 [compound 71] — recorded log P (*) = 2.12

response.value for Fc1ccc(Oc2ccccc2-c2csc(N=C3CCCCN3)n2)c(F)c1F [compound 77] (field: log P (*)) = 2.01

Entry Clc1ccc(-c2csc(N=C3CCCCN3)n2)cc1 [compound 103] , log P (*) reported as 1.68

Value of log P (*) reported for the compound COc1ccc(-c2cccc(-c3csc(N=C4CCCCN4)n3)c2)cc1 [compound 68] is 1.85

* * *

assay: logP by HPLC on reversed-phase columns (C 18), EEC directive 79/831 Annex V.A8; type: physicochemical; conditions: reversed-phase HPLC column (C 18); LC-MS, acidic range, pH 2.7, 0.1% aqueous formic acid and acetonitrile; read-out: log P (**)
observed.property: chromatographic logP
Write the number on its own, no unit after it.

Note to self: chromatographic logP recorded for CC(=O)N1CCCCC1=Nc1nc(-c2ccc(Cl)cc2Cl)cs1 [compound 35] was 4.33

* * *

test: logP by HPLC on reversed-phase columns (C 18), EEC directive 79/831 Annex V.A8; format: physicochemical; conditions: acidic range, pH 2.3, 0.1% aqueous phosphoric acid and acetonitrile
Record Satisfied whenever log P (*) is at 2 or higher; record Not satisfied when lower.

Query block: Reported log P (*) at or above 2? COc1cccc(-c2csc(N=C3CCCCN3)n2)c1
Result block: Not satisfied

Query block: Please indicate if the recorded log P (*) for c1ccc(Oc2ccccc2-c2csc(N=C3CCCN3)n2)cc1 meets or exceeds 2.
Result block: Not satisfied

Query block: Answer whether log P (*) of Fc1ccc(Oc2ccccc2-c2csc(N=C3CCCCN3)n2)c(F)c1 is greater than or equal to 2.
Result block: Satisfied

Query block: Does log P (*) meet or surpass 2 for C=CCOc1ccccc1-c1csc(N=C2CCCCN2)n1 ?
Result block: Not satisfied

Query block: Given the entry c1cc2c(cc1-c1csc(N=C3CCCCN3)n1)OCO2 , answer whether its log P (*) meets or surpasses 2.
Result block: Not satisfied

* * *

assay: logP by HPLC on reversed-phase columns (C 18), EEC directive 79/831 Annex V.A8; format: physicochemical; details: LC-MS, neutral range, pH 7.8, 0.001 molar aqueous ammonium bicarbonate and acetonitrile
What log P (***) was measured for each of the following?
// return a plain number; no unit text

So for Clc1cccc(Cc2csc(N=C3CCCCN3)n2)c1 [compound 70] , the logged log P (***) turned out to be 3.36

Recorded result, Fc1ccc(Oc2ccccc2-c2csc(N=C3CCCCN3)n2)c(F)c1F [compound 77] , log P (***): 4.17

Given item Fc1ccc(F)c(Oc2ccccc2-c2csc(N=C3CCCCN3)n2)c1 [compound 80] , the value recorded as its log P (***) is 3.98

// Clc1ccccc1-c1csc(N=C2CCCCN2)n1 [compound 20] : log P (***) value = 3.19

// sample Cc1cccc(-c2cccc(-c3csc(N=C4CCCCN4)n3)c2)c1 [compound 71] , its log P (***) was 4.48

// log P (***) value for CC(=O)N1CCCCC1=Nc1nc(-c2cccc(Cl)c2Cl)cs1 [compound 36] : 4.02

log P (***) reading for Cc1ccc(Oc2ccccc2-c2csc(N=C3CCCN3)n2)c(C)c1 [compound 95] : 2.48

Lab book: log P (***) of Clc1ccc(Cc2ccccc2-c2csc(N=C3CCCCN3)n2)cc1Cl [compound 92] noted as 5.07

Reported log P (***) of Clc1cc(Cl)cc(Cc2ccccc2-c2csc(N=C3CCCCN3)n2)c1 [compound 89] : 5.35

* * *

assay: logP by HPLC on reversed-phase columns (C 18), EEC directive 79/831 Annex V.A8; assay type: physicochemical; settings: LC-MS, neutral range, pH 7.8, 0.001 molar aqueous ammonium bicarbonate and acetonitrile
// classify: if (log P (***) < 4) Yes else No

Query block: Determine whether this compound shows log P (***) lower than 4 (ties excluded): Fc1cccc(-c2csc(N=C3CCCCN3)n2)c1F
Result block: Yes

Query block: Hi there! Is log P (***) for c1sc(N=C2CCCCN2)nc1CC1CC1 below 4, do you know?
Result block: Yes

Query block: Is it true that log P (***) reported for Cc1sc(N=C2CCCCN2)nc1-c1cccc(F)c1F is less than 4?
Result block: Yes

Query block: State whether 4 exceeds log P (***) recorded for FC(F)(F)c1cc(-c2csc(N=C3CCCCN3)n2)cc(C(F)(F)F)c1 .
Result block: No

Query block: Confirm or reject: log P (***) of Clc1ccc(-c2csc(N=C3CCCCN3)n2)cn1 lies strictly below 4
Result block: Yes

Query block: Please state whether log P (***) is below 4 for CC(=O)N1CCCCC1=Nc1nc(-c2cc(F)cc(F)c2)cs1
Result block: Yes

* * *

test: logP by HPLC on reversed-phase columns (C 18), EEC directive 79/831 Annex V.A8; assay type: physicochemical; settings: LC-MS, neutral range, pH 7.8, 0.001 molar aqueous ammonium bicarbonate and acetonitrile
Lab note: anything with log P (***) at or over 4 counts as Y; the rest go in N.

Query block: State whether the measured log P (***) reaches 4, counting equality as reaching it, for Clc1ccc(Oc2ccccc2-c2csc(N=C3CCCN3)n2)c(Cl)c1
Result block: Y

Query block: Can Fc1ccc(Oc2ccccc2-c2csc(N=C3CCCN3)n2)c(F)c1 be said to have log P (***) at or above 4?
Result block: N

Query block: Decide: log P (***) of FC(F)(F)Oc1ccccc1-c1csc(N=C2CCCCN2)n1 >= 4?
Result block: N

Query block: Would you say Fc1cc(F)cc(-c2csc(N=C3CCCCN3)n2)c1 shows log P (***) at minimum 4?
Result block: N

* * *

assay: logP by HPLC on reversed-phase columns (C 18), EEC directive 79/831 Annex V.A8; type: physicochemical; conditions: LC-MS, neutral range, pH 7.8, 0.001 molar aqueous ammonium bicarbonate and acetonitrile
Classification field: 1.0 = log P (***) at or over 4; 0.0 = log P (***) under 4.

Query block: Given the entry c1ccc(Oc2ccccc2-c2csc(N=C3CCCN3)n2)cc1 , answer whether its log P (***) meets or surpasses 4.
Result block: 0.0

Query block: For this compound, is measured log P (***) 4 or higher? Fc1ccc(Cc2ccccc2-c2csc(N=C3CCCCN3)n2)c(F)c1
Result block: 1.0

Query block: Reported log P (***) reaches at least 4 for Brc1ccccc1Oc1ccccc1-c1csc(N=C2CCCCN2)n1 ?
Result block: 1.0

Query block: Quick check, log P (***) >= 4? c1cc2c(cc1-c1csc(N=C3CCCCN3)n1)OCO2
Result block: 0.0

Query block: # check: log P (***) of CC(C)(C)Cc1cccc(-c2csc(N=C3CCCCN3)n2)c1 is greater than or equal to 4
Result block: 1.0

Query block: Is log P (***) for Clc1ccc(Cc2ccccc2-c2csc(N=C3CCCCN3)n2)cc1 at or above 4?
Result block: 1.0

Query block: Is it the case that Cc1ccc(Oc2ccccc2-c2csc(N=C3CCCCN3)n2)cc1 has log P (***) reaching or exceeding 4?
Result block: 1.0

Query block: Quick check, log P (***) >= 4? COc1ccc(-c2csc(N=C3CCCCN3)n2)cc1OC
Result block: 0.0

* * *

Assign log P (**) to each entry below.
experiment: logP by HPLC on reversed-phase columns (C 18), EEC directive 79/831 Annex V.A8; type: physicochemical; details: LC-MS, acidic range, pH 2.7, 0.1% aqueous formic acid and acetonitrile
Form rule: numeric answer, no unit written next to it.

Please fill in: log P (**) reported for Brc1ccccc1-c1csc(N=C2CCCCN2)n1 [compound 48] = 1.58

Field log P (**) (entry CC(C)(C)c1ccc(-c2csc(N=C3CCCCN3)n2)cc1 [compound 32] ) reads 2.2

According to the records, this molecule Cc1ccc(Oc2ccccc2-c2csc(N=C3CCCN3)n2)c(C)c1 [compound 95] displays log P (**) of 2.52

The molecule listed as Clc1ccc(Oc2ccccc2-c2csc(N=C3CCCCN3)n2)c(Cl)c1 [compound 11] shows log P (**) equal to 2.42

Measured log P (**) of FC(F)(F)c1cccc(-c2csc(N=C3CCCCN3)n2)c1 [compound 45] : 1.97

Recorded log P (**) (molecule CC(=O)N1CCCCC1=Nc1nc(-c2cccc(C(F)(F)F)c2F)cs1 [compound 38] ): 4.25

Measured log P (**), CCOc1ccccc1-c1csc(N=C2CCCCN2)n1 [compound 23] : 1.77

Sample FC(F)(F)c1cccc(-c2csc(N=C3CCCCN3)n2)c1Cl [compound 8] ; log P (**) observed: 1.94

Recorded log P (**) (molecule Fc1cc(F)cc(-c2csc(N=C3CCCCN3)n2)c1 [compound 29] ): 1.57

get_value(item= c1ccc(Cc2ccc(-c3csc(N=C4CCCCN4)n3)cc2)cc1 [compound 94] , readout=log P (**)) returns 2.07

# log P (**) of FC(F)(F)c1ccccc1-c1csc(N=C2CCCCN2)n1 [compound 21] = 1.76

Documented log P (**) of FC(F)(F)Oc1ccccc1-c1csc(N=C2CCCCN2)n1 [compound 15] : 1.77

Just so you know, measured log P (**) for CCOc1ccccc1-c1csc(N=C2CCCCN2C(C)=O)n1 [compound 33] came out at 2.71

Record Clc1cccc(-c2csc(N=C3CCCCN3)n2)c1Cl [compound 24] . Reported log P (**): 1.81
